Each entry below carries its recorded fold change of affinity.
target: T1, Human CD137 ECD (human); assay: SPR, vs parent H183/L072
T1 construct: also called 4-1BB
T1 sequence (chain, as listed by the source limits assumed): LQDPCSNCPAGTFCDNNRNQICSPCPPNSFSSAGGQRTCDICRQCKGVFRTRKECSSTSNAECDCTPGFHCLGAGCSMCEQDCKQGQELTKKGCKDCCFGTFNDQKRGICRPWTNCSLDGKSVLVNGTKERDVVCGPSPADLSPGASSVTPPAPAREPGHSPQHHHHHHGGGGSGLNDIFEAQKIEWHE
measured_property: fold change of affinity (fold)

dBBDu183H F100gY / dBBDu072L (antibody, name in Kabat numbering, V domains shown, as m1, one VH change) VH: QVQLVESGGGLVQPGRSLRLSCAASGFTFSNAWMHWVRQAPGKGLEWVAQIKDKGNAYAAYYAPSVKGRFTISRDDSKNSIYLQMNSLKTEDTAVYYCHYVHYASASTVLPAYGVDAWGQGTTVTVSS VL: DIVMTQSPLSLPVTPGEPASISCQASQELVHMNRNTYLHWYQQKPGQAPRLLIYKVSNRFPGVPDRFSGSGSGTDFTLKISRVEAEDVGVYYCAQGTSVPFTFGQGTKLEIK	1
dBBDu183H Y97F / dBBDu072L (antibody, name in Kabat numbering, V domains shown, as m1, one VH change) VH: QVQLVESGGGLVQPGRSLRLSCAASGFTFSNAWMHWVRQAPGKGLEWVAQIKDKGNAYAAYYAPSVKGRFTISRDDSKNSIYLQMNSLKTEDTAVYYCHYVHFASASTVLPAFGVDAWGQGTTVTVSS VL: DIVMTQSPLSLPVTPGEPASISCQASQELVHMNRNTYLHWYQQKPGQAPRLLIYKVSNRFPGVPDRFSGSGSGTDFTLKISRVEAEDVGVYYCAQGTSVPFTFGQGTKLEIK	1.8
dBBDu183H K64D / dBBDu072L (antibody, name in Kabat numbering, V domains shown, as m1, one VH change) VH: QVQLVESGGGLVQPGRSLRLSCAASGFTFSNAWMHWVRQAPGKGLEWVAQIKDKGNAYAAYYAPSVDGRFTISRDDSKNSIYLQMNSLKTEDTAVYYCHYVHYASASTVLPAFGVDAWGQGTTVTVSS VL: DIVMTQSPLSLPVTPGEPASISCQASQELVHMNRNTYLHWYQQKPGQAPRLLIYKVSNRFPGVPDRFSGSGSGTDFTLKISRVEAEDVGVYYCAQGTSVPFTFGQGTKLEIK	1.1
dBBDu183H V100cW / dBBDu072L (antibody, name in Kabat numbering, V domains shown, as m1, one VH change) VH: QVQLVESGGGLVQPGRSLRLSCAASGFTFSNAWMHWVRQAPGKGLEWVAQIKDKGNAYAAYYAPSVKGRFTISRDDSKNSIYLQMNSLKTEDTAVYYCHYVHYASASTWLPAFGVDAWGQGTTVTVSS VL: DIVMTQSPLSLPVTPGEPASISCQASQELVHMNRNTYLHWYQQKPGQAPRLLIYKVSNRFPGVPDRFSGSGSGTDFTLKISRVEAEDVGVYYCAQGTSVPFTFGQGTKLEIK	0.6
dBBDu183H S62V / dBBDu072L (antibody, name in Kabat numbering, V domains shown, as m1, one VH change) VH: QVQLVESGGGLVQPGRSLRLSCAASGFTFSNAWMHWVRQAPGKGLEWVAQIKDKGNAYAAYYAPVVKGRFTISRDDSKNSIYLQMNSLKTEDTAVYYCHYVHYASASTVLPAFGVDAWGQGTTVTVSS VL: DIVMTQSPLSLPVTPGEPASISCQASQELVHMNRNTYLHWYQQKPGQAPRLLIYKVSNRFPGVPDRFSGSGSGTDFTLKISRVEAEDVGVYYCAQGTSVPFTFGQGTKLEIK	0.9
